Each entry gets 0 if its melting point stays under 100 °C, and 1 if its melting point is 100 °C or above.

Check out these entries, answers already filled in.
// inclusive: melting point at least 100 °C? input: Cc1ccc2c(c1)CCCC2
0

Reported melting point at or above 100 °C? O=C=C=C=O
0

Next:
Entry CN1CCC(=C2c3ccccc3C=Cc3ccccc32)CC1 : is its melting point no less than 100 °C?
1

melting point >= 100 °C for COc1ccccc1C ?
0

Check this molecule for melting point at or above 100 °C: CC(C)NNC(=O)COc1ccc(Cl)cc1
0

Given CCI , state whether its melting point is at least 100 °C.
0

Answer whether melting point of Cc1occc(=O)c1O is greater than or equal to 100 °C.
1

Can CC(C)(C)c1ccccn1 be said to have melting point at or above 100 °C?
0

// inclusive: melting point at least 100 °C? input: CCOC(=O)N1CCN(C(=O)OCC)CC1
0

Form field: melting point at least 100 °C? Entry: FC(Cl)=C(Cl)C(F)(F)F
0

Item COc1ccc(C(=O)OC(=O)c2ccc(OC)cc2)cc1 with melting point of 100 °C or above?
0

I'd appreciate it if you could say whether O=C1CCC(=O)N1I has melting point at least equal to 100 °C.
1

====

PROPERTY LABEL: melting point (°C)
Give just the number in °C; leave the unit off.

In the examples that follow, each entry is paired with its recorded melting point.
Recorded melting point for O=C[O-].[NH4+] , please?
116

Given the entry COc1cc2ccc(=O)oc2c(O)c1O , report its measured melting point.
231

Reported melting point, molecule CCOC(=O)c1ccc(O)cc1 : ____
117

More entries:
// returns reported melting point for input O=Cc1ccccc1Cl
12.4

Given the entry Nc1ccc(/N=N/c2ccccc2)cc1 , report its measured melting point.
127

Requested read-out: melting point. Entry: CN(C)c1ccc(N)cc1
53

Fill in the blank: the reported melting point of Cc1ccc(-c2cc(C(F)(F)F)nn2-c2ccc(S(N)(=O)=O)cc2)cc1 is ____.
158

====

Give Fulfilled when the value for log10 Koa is at least 7. Give Not fulfilled when it is less.

These solved cases illustrate the format of a correct answer.
Check if log10 Koa >= 7 (inclusive). Item: CCCCCCCCO
Not fulfilled

Record Clc1ccccc1Cl ; criterion: log10 Koa no lower than 7. Met?
Not fulfilled

Could you tell me if the measured log10 Koa of CCC(C)O (centres undefined) reaches 7 or more?
Not fulfilled

Continuing:
Say whether BrCBr shows log10 Koa of 7 or more.
Not fulfilled

Please check the record Cc1ccc(C)cc1 and state if its log10 Koa is at or above 7.
Not fulfilled

Check this compound for log10 Koa at or above 7: ClC(Cl)(Cl)C(Cl)(Cl)Cl
Not fulfilled

Determine whether measured log10 Koa meets or exceeds 7 for c1ccc2c(c1)ccc1ccccc12
Fulfilled

Say whether Clc1cc2oc3ccc(Cl)c(Cl)c3c2c(Cl)c1Cl shows log10 Koa of 7 or more.
Fulfilled

Test whether the compound Clc1ccc2c(Cl)cccc2c1Cl records log10 Koa of 7 or higher.
Fulfilled

Confirm if log10 Koa reported for the compound Cc1c(C)c(C)c(C)c(C)c1C is 7 or above.
Not fulfilled

# check: log10 Koa of CCOCC is greater than or equal to 7
Not fulfilled

For this compound, is measured log10 Koa 7 or higher? CCCCCC=O
Not fulfilled
